Attribution: patent US20070202045A1

Molecular target: T1, rabbit albumin (rabbit, UniProt P49065 25-608)
T1 construct: bought (Sigma); also called rabbit SA; BuSA
T1 sequence (P49065 25-608 limits assumed): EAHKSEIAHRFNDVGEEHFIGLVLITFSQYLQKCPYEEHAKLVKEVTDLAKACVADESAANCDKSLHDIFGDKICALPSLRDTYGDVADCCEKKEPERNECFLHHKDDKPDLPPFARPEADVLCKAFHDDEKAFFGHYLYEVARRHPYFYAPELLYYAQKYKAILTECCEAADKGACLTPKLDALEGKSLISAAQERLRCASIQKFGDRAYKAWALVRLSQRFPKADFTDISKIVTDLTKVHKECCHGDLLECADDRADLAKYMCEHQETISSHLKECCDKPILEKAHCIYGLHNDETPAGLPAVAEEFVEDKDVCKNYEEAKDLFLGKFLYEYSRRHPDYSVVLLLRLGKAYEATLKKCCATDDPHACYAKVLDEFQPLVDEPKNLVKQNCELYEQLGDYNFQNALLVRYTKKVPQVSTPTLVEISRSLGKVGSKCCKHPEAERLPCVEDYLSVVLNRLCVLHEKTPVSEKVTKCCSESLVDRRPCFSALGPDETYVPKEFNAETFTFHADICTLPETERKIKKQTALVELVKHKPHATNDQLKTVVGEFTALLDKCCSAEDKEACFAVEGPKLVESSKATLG
Assay: SA08b competition ELISA
Bridges are numbered along the chain shown (N, C = ends). Where no end group is shown, it is not given here.
In this section we review reported IC50 values for a set of binders.
Please respond with the number in nM and leave the unit unwritten.

Some entries whose results are on file:
>  <BINDER>
Ac-QGLIGDICLPRWGCLWGDSVK-NH2 (disulfide 8-14 (inferred), synthetic; disulfide oxidised) [SA08]

>  <VALUE_UNIT>
nM

>  <IC50>
63

$$$$
>  <BINDER>
Ac-RLMEDICLARWGCLWEDD-NH2 (disulfide 7-13 (inferred), synthetic; disulfide oxidised) [SA13]

>  <VALUE_UNIT>
nM

>  <IC50>
3200

$$$$
>  <BINDER>
DICLPRWGCLW-NH2 (disulfide 3-9 (inferred), synthetic; disulfide oxidised) [SA04]

>  <VALUE_UNIT>
nM

>  <IC50>
8540

$$$$
>  <BINDER>
QRLMEDICLPRWGCLWEDDF-NH2 (disulfide 8-14, synthetic; disulfide oxidised) [SA06]

>  <VALUE_UNIT>
nM

>  <IC50>
128

$$$$
>  <BINDER>
MEDICLPRWGCLWED-NH2 (disulfide 5-11 (inferred), synthetic; disulfide oxidised) [SA05]

>  <VALUE_UNIT>
nM

>  <IC50>
804

$$$$
>  <BINDER>
QGLIGDICLPRWGCLWGDSV-NH2 (disulfide 8-14 (inferred), synthetic; disulfide oxidised; printed ...GDSV here) [SA07]

>  <VALUE_UNIT>
nM

>  <IC50>
30

$$$$
>  <BINDER>
Ac-MEDICLPRWGCLWED-NH2 (disulfide 5-11 (inferred), synthetic; disulfide oxidised) [SA12]

>  <VALUE_UNIT>
nM

>  <IC50>
1760

$$$$
>  <BINDER>
Ac-MEDICLPRWGCLWEDD-NH2 (disulfide 5-11 (inferred), synthetic; disulfide oxidised) [SA11]

>  <VALUE_UNIT>
nM

>  <IC50>
1210

$$$$
>  <BINDER>
Ac-RLMEDICLPRWGCLWEDD-NH2 (disulfide 7-13 (inferred), synthetic; disulfide oxidised) [SA10]

>  <VALUE_UNIT>
nM

>  <IC50>
86

$$$$

Shift focus to the following entry.
Lab note: Ac-EDICLPRWGCLWEDD-NH2 (disulfide 4-10 (inferred), synthetic; disulfide oxidised) [SA09] gave IC50 of 1690
